# Test system: HEK-293T
# TEST PROTOCOL: Multiplex assay against HEK293T
# Type: toxicity, cell-based
# CONDITION PARAMETERS: human, 12 h, 10 µM, compound concentration 10 uM, replicate 2
Give 1 when the value for Population Apoptotic (%) is at least 30%. Give 0 when it is less.

COMPOUND | TARGET | GROUP
Cl.NC[C@@H]1O[C@H](C23CC4CC(CC(C4)C2)C3)Cc2c1ccc(O)c2O | HEK-293T | 1
c1ccc(-c2oc3ncnc(NC[C@@H]4CCCO4)c3c2-c2ccccc2)cc1 | HEK-293T | 1
Cc1c(P(=S)(c2ccccc2)c2ccccc2)n2ccccc2[n+]1C/C=C/c1ccccc1.[Br-] | HEK-293T | 1
CCOC(=O)CCNc1cc(N2CCc3ccccc3CC2)nc(-c2ccccn2)n1 | HEK-293T | 0
CCCCCNC(=N)N/N=C/c1c[nH]c2ccc(OC)cc12.O=C(O)/C=C\C(=O)O [TEGASEROD MALEATE] | HEK-293T | 1
CC[C@H](Nc1ncnc2[nH]cnc12)c1nc2cccc(F)c2c(=O)n1-c1ccccc1 | HEK-293T | 0
CC(/C=C1\SC(=S)N(CCCC(=O)Nc2ccc(C(=O)O)c(O)c2)C1=O)=C\c1ccccc1 | HEK-293T | 0
CC[C@@]1(O)C(=O)OCc2c1cc1n(c2=O)Cc2cc3ccccc3nc2-1 | HEK-293T | 0
C[C@@H](Oc1cc(-n2cnc3ccc(CN4CCN(C)CC4)cc32)sc1C(N)=O)c1ccccc1C(F)(F)F | HEK-293T | 1

====

# System: Fibroblast
# TEST PROTOCOL: Multiplex assay against human fibroblast
# Assay type: toxicity, cell-based
# CONDITION PARAMETERS: 48 h, 1 µM, compound concentration 1 uM, replicate 1
Population Healthy Nuclei (%) reference

MOLECULE | Population Healthy Nuclei (%)
C[C@@H](Oc1cc(-n2cnc3ccc(CN4CCN(C)CC4)cc32)sc1C(N)=O)c1ccccc1C(F)(F)F | 44%
CC(Cc1ccc(O)c(O)c1)C(C)Cc1ccc(O)c(O)c1 (centres undefined) [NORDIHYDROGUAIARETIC ACID] | 75%
CCCCCNC(=N)N/N=C/c1c[nH]c2ccc(OC)cc12.O=C(O)/C=C\C(=O)O [TEGASEROD MALEATE] | 58%
CC(C)c1cc(Nc2nc(N3CCC[C@H](N)C3)ncc2C(N)=O)cc(C(C)C)n1 | 40%
Oc1cccc(-c2nc(N3CCOCC3)c3oc4ncccc4c3n2)c1 | 53%
CCCc1cc(C)[nH]c(=O)c1CNC(=O)c1cc(-c2ccc(N3CCN(C(C)C)CC3)nc2)cc2c1cnn2C(C)C | 50%
CC(/C=C1\SC(=S)N(CCCC(=O)Nc2ccc(C(=O)O)c(O)c2)C1=O)=C\c1ccccc1 | 52%
CC(C)C[C@H](NC(=O)[C@H](Cc1ccccc1)NC(=O)CNC(=O)CNC(=O)[C@@H](N)Cc1ccc(O)cc1)C(=O)O | 45%
C=CC(=O)Nc1cc(-n2c(=O)ccc3cnc4ccc(-c5ccc(NS(C)(=O)=O)cc5)cc4c32)ccc1C | 43%

====

# System: U2OS
# TEST PROTOCOL: Multiplex assay against U2OS
# Type: toxicity, cell-based
# CONDITION PARAMETERS: human, 12 h, 10 µM, compound concentration 10 uM, replicate 2
Assign 1 to entries whose Total Cell Count meets or exceeds 100; assign 0 to the rest.

COMPOUND | TARGET | GROUP
CN(c1cc(C(F)(F)F)nc(OCCC(=O)O)n1)c1cccc2c1CCC2 | U2OS | 0
Cc1ccc(S(=O)(=O)NC2c3ccccc3Oc3ccccc32)cc1 | U2OS | 1
Cc1ccc(NC(=O)Nc2cc(C(F)(F)F)ccc2F)cc1Nc1ccc2c(c1)NC(=O)/C2=C\c1ccc[nH]1 | U2OS | 1
CC[C@@H]1C(=O)N(C)c2cnc(Nc3ccc(C(=O)NC4CCN(C)CC4)cc3OC)nc2N1C1CCCC1 | U2OS | 1
CCCCCNC(=N)N/N=C/c1c[nH]c2ccc(OC)cc12.O=C(O)/C=C\C(=O)O [TEGASEROD MALEATE] | U2OS | 0
CC(C)C[C@H](NC(=O)[C@H](Cc1ccccc1)NC(=O)CNC(=O)CNC(=O)[C@@H](N)Cc1ccc(O)cc1)C(=O)O | U2OS | 0
Cl.Cn1c2c(c3ccc(Cl)c(Cl)c31)C(C#N)C1(CCNCC1)NC2=O (stereo not drawn) | U2OS | 1

The measured values listed here are drawn from ChEMBL document CHEMBL4689842.
